- TARGET_OF_ASSAY: MCR-4 (Homo sapiens)
- Construct: expressed in transfected cells; host or cells: HEK 293
- Sequence (P32245 whole entry): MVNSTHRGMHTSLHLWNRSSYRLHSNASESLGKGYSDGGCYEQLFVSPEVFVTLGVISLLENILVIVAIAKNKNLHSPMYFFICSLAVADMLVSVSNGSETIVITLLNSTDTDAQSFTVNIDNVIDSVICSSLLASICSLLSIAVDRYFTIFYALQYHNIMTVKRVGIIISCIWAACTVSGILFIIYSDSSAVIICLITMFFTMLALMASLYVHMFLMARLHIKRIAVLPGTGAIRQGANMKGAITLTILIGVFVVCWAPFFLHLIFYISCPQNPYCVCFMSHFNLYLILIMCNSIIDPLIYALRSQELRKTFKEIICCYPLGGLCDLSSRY
- ASSAY_REMARKS: Melanocortin receptor binding assay, competition with 125I-HP 467, HEK 293 cells expressing hMCR-4
- SETUP_CONDITIONS: TRG 2414 library; inhibition of binding of 125I-HP 467, HEK 293 cells expressing MCR-4; read-out: MC-4 IC50
ATTRIBUTE_MEASURED: IC50 (µM)

MOLECULE: CC(C)Cc1ccc(C(C)CNC(CN)CCCCN2Cc3ccccc3C(CNCCc3cccc(Cl)c3)C2c2ccccc2Br)cc1 (stereo not shown)
UNIT_ABBREVIATION: µM
MEAS_VALUE: 39
//
MOLECULE: CCCOc1ccc(C2C(CNC3CCCCC3)c3ccccc3CN2CCCCC(CN)NCC(C)c2ccc(CC(C)C)cc2)cc1 (stereo not shown)
UNIT_ABBREVIATION: µM
MEAS_VALUE: 16.8
//
MOLECULE: NCC(N)CCCCN1Cc2ccccc2C(CNC2CCCCC2)C1c1ccccc1Br (stereo not shown)
UNIT_ABBREVIATION: µM
MEAS_VALUE: 3.61
//
MOLECULE: COc1ccc(CCNCC2c3ccccc3CN(CCCCC(CN)NCc3ccccc3)C2c2ccccc2Br)cc1 (stereo not shown)
UNIT_ABBREVIATION: µM
MEAS_VALUE: 3.71
